Hello, the source for this data is patent US20250243488A1, in case you need it.

Tested on: human GRN mRNA
assay: hGRN mRNA qPCR in HepG2 cells transfected with ASOs
Format: cell-based
conditionNotes: 100 nM ASO, 48 hours post-transfection
Procedure: To assess the ability of ASOs targeting hGRN paRNA to modulate the expression of human GRN mRNA, 110 ASOs targeting hGRN paRNA (− strand) were tested in the hepatocellular carcinoma cell lineHepG2. 48 hours post-transfection, cells were collected for mRNA analysis via qPCR.
Oligonucleotides are written 5' to 3', each unit as a sugar letter and its base; * is a phosphorothioate linkage, no mark a phosphodiester; rarer units and linkages stand in square brackets, end groups in braces. Plain capitals give the bases only. e = 2'-O-(2-methoxyethyl) (MOE); [5mC] = 5-methylcytosine
metric: hGRN mRNA FC
Your reply should be a number followed by the unit it is expressed in.

Example entries and their recorded answers appear below.
| substance | reportedValue |
| --- | --- |
| CO-3448: ASO targeting hGRN paRNA (− strand) (antisense eT*eA*eG*eA*eA*eA*eA*eG*eA*eA*eA*e[5mC]*eA*e[5mC]*eA*eG*e[5mC]*eA*eT*eT) | 0.8 FC |
| CO-3434: ASO targeting hGRN paRNA (− strand) (antisense eA*eG*eA*eA*eG*eA*eA*e[5mC]*e[5mC]*eG*e[5mC]*eT*eT*eA*e[5mC]*eT*eG*eA*eA*eA) | 0.7 FC |

// moving on: another record for hGRN mRNA FC
Data request: # return hGRN mRNA FC of CO-3424: ASO targeting hGRN paRNA (− strand) (antisense eG*e[5mC]*eT*eT*e[5mC]*eT*e[5mC]*eG*eA*eA*eG*eG*eT*eA*eG*eT*eA*eG*eG*eG) (system: human GRN mRNA)
Data returned: 1.3 FC
